- System: Danio rerio larvae (5 dpf)
- protocol: excitability (activity period 17 minus period 16, 1-s interval sound) minus DMSO control (percentage points); higher = more acoustic excitability than DMSO larvae
- test.parameters: 10 µM; exposure time: 3 h pre-incubation + 3 h imaging
Structures can show the parent of a compound that is named as a salt.
Each record here notes measured excitability.

{"columns": ["molecule", "measurement.name", "measured"],
 "data": [
  ["COc1cc2ncnc(Nc3ccc(F)c(Cl)c3)c2cc1OCCCN1CCOCC1 [Iressa]", "excitability", 19.5],
  ["CCOC(=O)N1CCC(=C2c3ccc(Cl)cc3CCc3cccnc32)CC1 [Loratidine]", "excitability", -3.25],
  ["CC(C)C(=O)Nc1ccc([N+](=O)[O-])c(C(F)(F)F)c1 [Flutamide]", "excitability", -5.48],
  ["CC(CCc1ccc(O)cc1)NCCc1ccc(O)c(O)c1 (centres undefined) [Dobutamine hydrochloride]", "excitability", 9.03],
  ["CCOC(=O)c1ncn2c1CN(C)C(=O)c1cc(F)ccc1-2 [Flumazenil]", "excitability", 2.65],
  ["Cc1cccc(C)c1OCC(C)N (centres undefined) [Mexiletine hydrochloride]", "excitability", 3.31]
]}

Query string: Lab note: Danio rerio larvae (5 dpf) assay, enter excitability for CCOC(=O)C1=C(COCCN)NC(C)=C(C(=O)OC)C1c1ccccc1Cl (centres undefined) [Amlodipine besylate] here
Result string: 1.82

Query string: Fetch value of excitability on Danio rerio larvae (5 dpf) for COc1c(C)c2c(c(O)c1C/C=C(\C)CCC(=O)OCCN1CCOCC1)C(=O)OC2 [Mycophenolate mofetil] .
Result string: 4.14

Query string: Report value only: excitability, Danio rerio larvae (5 dpf), Nc1cc(N2CCCCC2)nc(N)[n+]1[O-] [Minoxidil]
Result string: 0.502
